- system: DRB1*0401
- assay explanation: binding to purified HLA
- study conditions: chains peptide; modification not given
recorded metric: pIC50
Entry type: numeric. Quantity: pIC50, the -log10 of concentration in molar units.

Answer with the recorded pIC50 for the binder listed here: AKFVAAWTLKAAA [SEQ ID NO: 3]
8.85

This collection of values is drawn from patent US20160114035A1.
